Data provenance is ChEMBL document CHEMBL1142798.

# target: Caspase-3 (Homo sapiens)
# Sequence (P42574 29-175 limits assumed): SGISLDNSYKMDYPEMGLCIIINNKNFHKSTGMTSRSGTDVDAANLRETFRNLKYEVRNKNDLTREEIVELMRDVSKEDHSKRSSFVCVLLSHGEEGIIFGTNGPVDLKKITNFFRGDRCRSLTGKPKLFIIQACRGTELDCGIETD
# Sequence (P42574 176-277 limits assumed): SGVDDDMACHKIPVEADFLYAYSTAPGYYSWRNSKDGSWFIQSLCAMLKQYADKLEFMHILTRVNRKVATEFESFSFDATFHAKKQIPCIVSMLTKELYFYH
# measurement.description: Inhibitory activity against recombinant human Caspase-3
pIC50: −log10 of the molar value.
assay.readout: pIC50

INSERT INTO measurements (compound, assay_readout, assay_value) VALUES
  ('CC(C)[C@H](NC(=O)C(O)(c1ccccc1)c1ccccc1)C(=O)N[C@@H](CC(=O)O)C(=O)CSCc1ccccc1', 'pIC50', 5.89);

[1] CC(C)[C@H](O)C(=O)N[C@H](C(=O)N[C@@H](CC(=O)O)C(=O)CSCc1ccccc1)C(C)C
[2] CC(C)[C@H](NC(=O)[C@H](O)c1ccccc1)C(=O)N[C@@H](CC(=O)O)C(=O)CSCc1ccccc1
[3] CC(C)[C@H](NC(=O)C(C)(C)O)C(=O)N[C@@H](CC(=O)O)C(=O)CSCc1ccccc1
[4] CCC(O)(CC)C(=O)N[C@H](C(=O)N[C@@H](CC(=O)O)C(=O)CSCc1ccccc1)C(C)C
Ascending by pIC50, please: list the compounds accordingly. Reply: labels, ordered per the request.
4, 3, 1, 2
(4: 5.69, 3: 6.33, 1: 6.93, 2: 7.39)

---

# target: Caspase-7 (Homo sapiens, UniProt P55210)
# Sequence (P55210 24-198 limits assumed): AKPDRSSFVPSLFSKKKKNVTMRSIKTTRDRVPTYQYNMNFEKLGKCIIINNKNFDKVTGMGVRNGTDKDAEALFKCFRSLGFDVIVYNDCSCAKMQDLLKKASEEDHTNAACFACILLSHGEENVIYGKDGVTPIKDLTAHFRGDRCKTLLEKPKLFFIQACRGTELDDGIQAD
# Sequence (P55210 207-303 limits assumed): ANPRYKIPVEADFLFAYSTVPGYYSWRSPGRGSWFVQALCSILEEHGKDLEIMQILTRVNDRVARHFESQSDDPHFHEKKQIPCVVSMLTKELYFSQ
# measurement.description: Inhibitory activity against recombinant human Caspase-7
pIC50: −log10 of the molar value.
assay.readout: pIC50

Worked cases, answers included:
INSERT INTO assay_data (molecule, assay_readout, assay_value) VALUES
  ('CC(C)[C@H](NC(=O)C1(O)CC1)C(=O)N[C@@H](CC(=O)O)C(=O)CSCc1ccccc1', 'pIC50', 5.29),
  ('CC(C)[C@H](NC(=O)C(C)(C)O)C(=O)N[C@@H](CC(=O)O)C(=O)CSCc1ccccc1', 'pIC50', 4.96),
  ('CC(C)[C@H](NC(=O)C(C)(O)c1ccccc1)C(=O)N[C@@H](CC(=O)O)C(=O)CSCc1ccccc1 (stereo not given in full)', 'pIC50', 5.56),
  ('C#CC[C@@H](C(=O)N[C@H](C(=O)N[C@@H](CC(=O)O)C(=O)CSCc1ccccc1)C(C)C)c1cc(Br)ccc1OC (stereo in doubt; 13)', 'pIC50', 5.44);

[1] CC(C)[C@H](O)C(=O)N[C@H](C(=O)N[C@@H](CC(=O)O)C(=O)CSCc1ccccc1)C(C)C
[2] CC(C)[C@H](NC(=O)C(O)c1ccccc1)C(=O)N[C@@H](CC(=O)O)C(=O)CSCc1ccccc1 (single isomer, unassigned)
[3] COc1ccc(-c2nc(C)no2)cc1CC(=O)N[C@H](C(=O)N[C@@H](CC(=O)O)C(=O)CSCc1ccccc1)C(C)C
[4] COc1ccc(C(C)=O)cc1CC(=O)N[C@H](C(=O)N[C@@H](CC(=O)O)C(=O)CSCc1ccccc1)C(C)C
Please rank these molecules by pIC50 in descending order. Reply: labels, ordered per the request.
3, 4, 1, 2

---

# target: Caspase-8 (Homo sapiens)
# Sequence (Q14790 217-374 limits assumed): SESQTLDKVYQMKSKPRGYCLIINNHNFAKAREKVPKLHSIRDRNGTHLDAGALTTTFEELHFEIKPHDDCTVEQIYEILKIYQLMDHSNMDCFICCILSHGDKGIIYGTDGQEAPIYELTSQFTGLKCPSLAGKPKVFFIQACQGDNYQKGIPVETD
# Sequence (Q14790 385-479 limits assumed): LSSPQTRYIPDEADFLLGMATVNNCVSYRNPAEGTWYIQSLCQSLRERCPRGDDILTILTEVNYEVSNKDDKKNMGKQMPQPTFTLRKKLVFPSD
# measurement.description: Inhibitory activity against recombinant human Caspase-8
assay.readout: IC50 (µM)

INSERT INTO assay_data (molecule, assay_value) VALUES
  ('CC(C)[C@H](O)C(=O)N[C@H](C(=O)N[C@@H](CC(=O)O)C(=O)CSCc1ccccc1)C(C)C', 7.34),
  ('CC(C)[C@H](NC(=O)C(C)(C)O)C(=O)N[C@@H](CC(=O)O)C(=O)CSCc1ccccc1', 13.8),
  ('CC(C)[C@H](NC(=O)[C@H](O)C(C)C)C(=O)N[C@@H](CC(=O)O)C(=O)CSCc1ccccc1', 7.27),
  ('COc1ccc(Br)cc1CC(=O)N[C@H](C(=O)N[C@@H](CC(=O)O)C(=O)CSCc1ccccc1)C(C)C (stereo in doubt; 29)', 1.89);

[a] COc1ccc(C(C)=O)cc1CC(=O)N[C@H](C(=O)N[C@@H](CC(=O)O)C(=O)CSCc1ccccc1)C(C)C
[b] CC(C)[C@H](NC(=O)[C@H](O)c1ccccc1)C(=O)N[C@@H](CC(=O)O)C(=O)CSCc1ccccc1
[c] COc1ccc(OC)c(CC(=O)N[C@H](C(=O)N[C@@H](CC(=O)O)C(=O)CSCc2ccccc2)C(C)C)c1
[d] COc1ccc(Br)cc1CC(=O)N[C@H](C(=O)N[C@@H](CC(=O)O)C(=O)CSCc1ccccc1)C(C)C (stereo in doubt; 6)
Please rank these molecules by IC50 in descending order. Reply: labels, ordered per the request.
c, a, d, b
(c: 7.91 µM, a: 3.88 µM, d: 1.89 µM, b: 1.15 µM)

[A] COc1ccc(-c2nc(C)no2)cc1CC(=O)N[C@H](C(=O)N[C@@H](CC(=O)O)C(=O)CSCc1ccccc1)C(C)C
[B] CCC(O)(CC)C(=O)N[C@H](C(=O)N[C@@H](CC(=O)O)C(=O)CSCc1ccccc1)C(C)C
Thinking about recorded IC50 values, which is higher, A or B ? Answer by quoting the chosen item's label.
B
